Value source: ChEMBL document CHEMBL4842347

Listed next: entries and their corresponding pIC50.
experiment: Inhibition of PREP (unknown origin) using fluorogenic substrate by spectrometric assay; set-up: species or system Homo sapiens
A value of pIC50 is the negative decimal logarithm of a concentration given in moles per litre.

Known pIC50 results, listed for orientation:
SMILES NOTATION: CC(C)(C)OC(=O)CNC(=O)C(=O)[C@@H]1CCCN1C(=O)CNC(=O)c1ccnc2ccccc12
RECORDED RESULT: 9.28
--
SMILES NOTATION: COC(=O)[C@H](Cc1ccccc1)NC(=O)CNC(=O)C(=O)[C@@H]1CCCN1C(=O)CNC(=O)c1ccnc2ccccc12
RECORDED RESULT: 9.44
--
SMILES NOTATION: COC(=O)[C@H](CCC(=O)O)NC(=O)CNC(=O)C(=O)[C@@H]1CCCN1C(=O)CNC(=O)c1ccnc2ccccc12
RECORDED RESULT: 8.89
--
SMILES NOTATION: CC(C)(C)NC(=O)CNC(=O)C(=O)[C@@H]1CCCN1C(=O)CNC(=O)c1ccnc2ccccc12
RECORDED RESULT: 9.14
--
SMILES NOTATION: O=C(NCc1ccc(F)cc1)C(=O)[C@@H]1CCCN1C(=O)CNC(=O)c1ccnc2ccccc12
RECORDED RESULT: 9.59
--
SMILES NOTATION: Cc1ccc(CNC(=O)C(=O)[C@@H]2CCCN2C(=O)CNC(=O)c2ccnc3ccccc23)c(C)c1
RECORDED RESULT: 9.18
--
SMILES NOTATION: CCCCCNC(=O)C(=O)[C@@H]1CCCN1C(=O)CNC(=O)c1ccnc2ccccc12
RECORDED RESULT: 9.40

We next turn to a different compound, shown below.
For `COC(=O)[C@H](CCCCNC(=O)OCc1ccccc1)NC(=O)CNC(=O)C(=O)[C@@H]1CCCN1C(=O)CNC(=O)c1ccnc2ccccc12` , what is its reported pIC50? 9.54

---

assay: Metabolic stability in human plasma incubated for 2 hrs by LC/MS-MS analysis; format: ADME, cell-free
MEASURED PROPERTY: Stabilty

Known Stabilty results, listed for orientation:
SMILES NOTATION: O=C(NCc1ccccc1)C(=O)[C@@H]1CCCN1C(=O)CNC(=O)c1ccnc2ccccc12
Stabilty: Stable
//
SMILES NOTATION: COC(=O)[C@H](CCC(=O)OCc1ccccc1)NC(=O)CNC(=O)C(=O)[C@@H]1CCCN1C(=O)CNC(=O)c1ccnc2ccccc12
Stabilty: Stable
//
SMILES NOTATION: COc1ccc(CCNC(=O)C(=O)[C@@H]2CCCN2C(=O)CNC(=O)c2ccnc3ccccc23)cc1OC
Stabilty: Stable
//
SMILES NOTATION: COc1ccc(CNC(=O)C(=O)[C@@H]2CCCN2C(=O)CNC(=O)c2ccnc3ccccc23)cc1OC
Stabilty: Stable

We next turn to a different molecule, shown below.
For `COC(=O)[C@H](Cc1ccccc1)NC(=O)CNC(=O)C(=O)[C@@H]1CCCN1C(=O)CNC(=O)c1ccnc2ccccc12` , what is its reported Stabilty? Stable

---

test: Inhibition of PREP (unknown origin) using fluorogenic substrate by spectrometric assay; design: species or system Homo sapiens
MEASURED PROPERTY: pIC50
A value of pIC50 is the negative decimal logarithm of a concentration given in moles per litre.

Known pIC50 results, listed for orientation:
SMILES NOTATION: N#C[C@@H]1CCCN1C(=O)CNC(=O)c1ccnc2ccccc12
pIC50: 6.49
--
SMILES NOTATION: O=C(NCC(=O)N1CCOCC1)C(=O)[C@@H]1CCCN1C(=O)CNC(=O)c1ccnc2ccccc12
pIC50: 9.31
--
SMILES NOTATION: COc1ccc(CNC(=O)C(=O)[C@@H]2CCCN2C(=O)CNC(=O)c2ccnc3ccccc23)cc1OC
pIC50: 9.62
--
SMILES NOTATION: N#C[C@@H]1CC(F)(F)CN1C(=O)CNC(=O)c1ccnc2ccccc12
pIC50: 6.51

We next turn to a different compound, shown below.
For `COc1ccc(CCNC(=O)C(=O)[C@@H]2CCCN2C(=O)CNC(=O)c2ccnc3ccccc23)cc1OC` , what is its reported pIC50? 9.37

---

test: Drug degradation in mouse liver microsomes measured up to 1 min incubated for 2 hrs by LC/MS-MS analysis; assay type: ADME, Microsome

SMILES NOTATION: COC(=O)[C@H](CCC(=O)OCc1ccccc1)NC(=O)CNC(=O)C(=O)[C@@H]1CCCN1C(=O)CNC(=O)c1ccnc2ccccc12
Stabilty: Unstable

SMILES NOTATION: COC(=O)[C@H](Cc1ccccc1)NC(=O)CNC(=O)C(=O)[C@@H]1CCCN1C(=O)CNC(=O)c1ccnc2ccccc12
Stabilty: Unstable

SMILES NOTATION: O=C(NCc1ccccc1)C(=O)[C@@H]1CCCN1C(=O)CNC(=O)c1ccnc2ccccc12
Stabilty: Unstable

SMILES NOTATION: COc1ccc(CCNC(=O)C(=O)[C@@H]2CCCN2C(=O)CNC(=O)c2ccnc3ccccc23)cc1OC
Stabilty: Unstable

---

Listed next: entries and their corresponding pIC50.
target: Dipeptidyl peptidase 4 (Homo sapiens, UniProt P27487); assay: Inhibition of SF-tagged DPP4 (unknown origin) expressed in Drosophila S2 cells using fluorogenic substrate by spectrometric analysis
Sequence (P27487 whole entry): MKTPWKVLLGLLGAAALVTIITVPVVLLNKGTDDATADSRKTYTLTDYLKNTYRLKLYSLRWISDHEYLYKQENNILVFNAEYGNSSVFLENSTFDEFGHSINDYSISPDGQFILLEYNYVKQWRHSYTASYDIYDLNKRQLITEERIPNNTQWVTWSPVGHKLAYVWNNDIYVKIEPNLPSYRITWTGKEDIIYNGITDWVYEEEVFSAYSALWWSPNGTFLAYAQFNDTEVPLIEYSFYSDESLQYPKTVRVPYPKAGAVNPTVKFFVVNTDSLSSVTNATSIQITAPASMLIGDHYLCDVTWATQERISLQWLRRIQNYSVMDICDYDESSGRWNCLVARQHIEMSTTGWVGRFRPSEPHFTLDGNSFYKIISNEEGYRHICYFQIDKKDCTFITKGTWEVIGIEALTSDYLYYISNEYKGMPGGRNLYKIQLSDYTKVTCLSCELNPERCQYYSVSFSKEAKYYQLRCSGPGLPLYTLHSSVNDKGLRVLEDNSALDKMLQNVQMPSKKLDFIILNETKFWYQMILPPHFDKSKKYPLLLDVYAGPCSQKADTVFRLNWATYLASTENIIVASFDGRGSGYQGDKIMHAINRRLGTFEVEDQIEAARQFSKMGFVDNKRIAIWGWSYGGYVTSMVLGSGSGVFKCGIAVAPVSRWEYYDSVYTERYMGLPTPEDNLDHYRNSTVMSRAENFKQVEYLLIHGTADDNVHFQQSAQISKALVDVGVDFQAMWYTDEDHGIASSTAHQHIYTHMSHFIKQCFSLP
pIC50: −log10 of the molar value.

SMILES NOTATION: N#C[C@@H]1CCCN1C(=O)CNC(=O)c1ccnc2ccccc12
MEASURED PROPERTY: pIC50
RECORDED RESULT: < 5.40

For `COC(=O)[C@H](CCCCNC(=O)OCc1ccccc1)NC(=O)CNC(=O)C(=O)[C@@H]1CCCN1C(=O)CNC(=O)c1ccnc2ccccc12` , what is its reported pIC50? < 5.40

Consider next the compound `COC(=O)[C@H](CCC(=O)O)NC(=O)CNC(=O)C(=O)[C@@H]1CCCN1C(=O)CNC(=O)c1ccnc2ccccc12` in the same way. < 5.40

Consider next the compound `O=C(NCC(=O)N1CCOCC1)C(=O)[C@@H]1CCCN1C(=O)CNC(=O)c1ccnc2ccccc12` in the same way. < 5.40

Consider next the compound `COC(=O)[C@H](Cc1ccccc1)NC(=O)CNC(=O)C(=O)[C@@H]1CCCN1C(=O)CNC(=O)c1ccnc2ccccc12` in the same way. < 5.40

Consider next the compound `Cc1ccc(CNC(=O)C(=O)[C@@H]2CCCN2C(=O)CNC(=O)c2ccnc3ccccc23)c(C)c1` in the same way. < 5.40

---

molecular target: Dipeptidyl peptidase 4 (Homo sapiens); test: Inhibition of SF-tagged DPP4 (unknown origin) expressed in Drosophila S2 cells using fluorogenic substrate by spectrometric analysis
MEASURED PROPERTY: IC50

SMILES NOTATION: CC(C)(C)OC(=O)CNC(=O)C(=O)[C@@H]1CCCN1C(=O)CNC(=O)c1ccnc2ccccc12
MEASURED PROPERTY: IC50
RECORDED RESULT: > 3 µM
//
SMILES NOTATION: O=C(NCc1ccc(F)cc1)C(=O)[C@@H]1CCCN1C(=O)CNC(=O)c1ccnc2ccccc12
MEASURED PROPERTY: IC50
RECORDED RESULT: > 3 µM

We next turn to a different compound, shown below.
For `CC(C)(C)NC(=O)CNC(=O)C(=O)[C@@H]1CCCN1C(=O)CNC(=O)c1ccnc2ccccc12` , what is its reported IC50? > 4 µM
